What IC50 was measured for each of the following?
System: human lung cancer strain NCI-H441
Assay type: cell-based
Answers are plain numbers, in nM.

The following molecules each have a reported value; give each one's IC50.
1. CCO[C@@H]1C[C@H]2C(=O)NC3(CC(F)(F)C3)C(=O)N(C)[C@@H](C3CCCC3)C(=O)N3CCC[C@@H]3CC(=O)N(C)[C@@H](CC)C(=O)N[C@@H]([C@@H](C)CC)C(=O)N(C)CC(=O)N(C)[C@H]3C/C=C\CCN(C3=O)[C@@H](Cc3ccc(C(F)(F)F)cc3)C(=O)N(C)CC(=O)N[C@@H](CCc3cc(F)c(C(F)(F)F)c(F)c3)C(=O)N2C1
2. CCO[C@@H]1C[C@H]2C(=O)NC3(CCC3)C(=O)N(C)[C@@H](C3CCCC3)C(=O)N(CCC3CCCC3)[C@H](C(=O)N(C)C)CC(=O)N(C)[C@@H](CC)C(=O)N[C@@H]([C@@H](C)CC)C(=O)N(C)CC(=O)N(C)[C@H]3C/C=C\CCN(C3=O)[C@@H](Cc3ccc(C(F)(F)F)cc3)C(=O)N(C)CC(=O)N[C@@H](CCc3cc(F)c(C(F)(F)F)c(F)c3)C(=O)N2C1

Given back:
1. 37
2. 372

====

Tested on: human lung cancer strain NCI-H441
Assay type: cell-based
Where a SMILES comes first, the peptide text is derived from it. Bridges are numbered along the chain shown (N, C = ends). [ ]: non-standard residue; d: D form. The star is where a group is joined. hPhe(3-Cl-4-CF3) = N[C@@H](CCc1ccc(C(F)(F)F)c(Cl)c1)C(=O)O; NMePhe(4-F) = CN[C@@H](Cc1ccc(F)cc1)C(=O)O; NMeGly(cPent) = CN[C@H](C(=O)O)C1CCCC1; NMeD = CN[C@@H](CC(=O)O)C(=O)O; NMeL = CN[C@@H](CC(C)C)C(=O)O; Morpholide = C1CN(*)CCO1; NMeA = CN[C@@H](C)C(=O)O; Ac5c = NC1(C(=O)O)CCCC1; Aze = O=C(O)[C@@H]1CCN1; Sar = CNCC(=O)O
What pIC50 was measured for each of the following?
One number for each entry, as −log10 of the molar value.

// worked examples, pIC50 included
| molecule | readout_name | quantitative_result |
| --- | --- | --- |
| CC[C@H](C)[C@@H]1NC(=O)[C@H](CC(C)C)N(C)C(=O)C[C@@H](C(=O)N2CCOCC2)N(C)C(=O)[C@H](C2CCCC2)N(C)C(=O)C2(CCCC2)NC(=O)[C@@H]2CCCN2C(=O)[C@H](CCc2cc(F)c(C(F)(F)F)c(F)c2)NC(=O)CN(C)C(=O)[C@H](Cc2ccc(C(F)(F)F)cc2)N2CCCC[C@@H](C2=O)N(C)C(=O)[C@H](CC)N(C)C1=O | pIC50 | 6.40 |
| CCCN(C)C(=O)[C@@H]1CC(=O)N(C)[C@@H](COCC)C(=O)N[C@@H]([C@@H](C)CC)C(=O)N(C)CC(=O)N(C)[C@H]2C/C=C\CCN(C2=O)[C@@H](Cc2ccc(C(F)(F)F)cc2)C(=O)N(C)CC(=O)N[C@@H](CCc2cc(F)c(C(F)(F)F)c(F)c2)C(=O)N2C[C@@H](C)C[C@H]2C(=O)NC2(CCC2)C(=O)N(C)[C@@H](C2CCCC2)C(=O)N1C | pIC50 | 7.80 |

Consider the additional molecule presented here.
Asked: Which pIC50 reading was recorded for the molecule CC[C@H](C)[C@@H]1NC(=O)[C@H](CC(C)C)N(C)C(=O)C[C@@H](C(=O)N2CCOCC2)N(C)C(=O)[C@H](C2CCCC2)N(C)C(=O)C2(CCCC2)NC(=O)[C@@H]2CCCN2C(=O)[C@H](CCc2ccc(C(F)(F)F)c(Cl)c2)NC(=O)CN(C)C(=O)[C@H](Cc2ccc(F)cc2)N(C)C(=O)[C@@H]2CCN2C(=O)[C@H](C)N(C)C1=O [PP0217] ([NMeL]I[NMeA][Aze][NMePhe(4-F)][Sar][hPhe(3-Cl-4-CF3)]P[Ac5c][NMeGly(cPent)][NMeD]-Morpholide; lactam N-11) ?
Given back: 7.74
